Test system: ACHN
test_name: NCI tumour cell line growth inhibition, 48 h
Active and inactive are the calls of the source. Cut-off read from the data, not from the text of the source: active = GI50 up to about 1.1 µM and inactive = higher.
quantity_measured: GI50

compound	assay_value
NC(Cc1ncccn1)C(=O)O (centres undefined)	> 100 µM (inactive)
CC1CCN(CCC(=O)CC(c2ccccc2)c2c(O)c3ccccc3oc2=O)CC1 (centres undefined)	> 100 µM (inactive)
CCN(CC)CC1CCCCN1CC(=O)N1c2ccccc2C(=O)Nc2cccnc21 (centres undefined)	56 µM (inactive)

Proceed to the following item.
-- ask What reported GI50 corresponds to CCOC(=O)C1=CC(C)(C(=O)OCC)Nc2c(nc(SC)n(C)c2=O)N1 (centres undefined) on ACHN?
-- reply > 10 µM (inactive)

====

Tested on: 786-0
test_name: NCI tumour cell line growth inhibition, 48 h
Activity calls are given as the source filed them. No stated cut-off is given here; in the data, active = GI50 up to about 1.1 µM and inactive = higher.
Reported GI50 values for the following compounds.

Illustrative cases are given below, each with its answer.
record_smiles	experimental_target	GI50
c1ccc2c(c1)[C@@H]1O[C@@H]1[C@@]13O[C@@]21[C@H]1O[C@H]1c1ccccc13	786-0	15.2 µM (inactive)
CC1(C)OC[C@@H]([C@@]2(COC(c3ccccc3)(c3ccccc3)c3ccccc3)CC=CC(=O)O2)O1	786-0	35.1 µM (inactive)
CN(C)CCCCN1c2ccccc2Sc2ccc(C(=O)c3ccccc3)cc21	786-0	1.82 µM (inactive)
c1cc(C[S+]2CCCC2)sc1C[S+]1CCCC1	786-0	> 100 µM (inactive)
COc1cc(NS(C)(=O)=O)ccc1NCc1c[nH]c2ccc3nc(C)ccc3c12	786-0	30.4 µM (inactive)

-- ask Look at this compound and give its reported GI50. CSc1ccc(-c2cn3ccsc3n2)c(O)c1
-- reply 20.7 µM (inactive)

-- ask And for COc1ccc(OC)c(C(=O)c2cccc(C(=O)c3cc(OC)ccc3OC)n2)c1 ?
-- reply 68.9 µM (inactive)

====

System: HCC 2998
test_name: NCI tumour cell line growth inhibition, 48 h
The source made the active and inactive calls. Rule as the data show it: active = GI50 up to about 1.1 µM and inactive = higher.
quantity_measured: GI50

For orientation, consider the following solved cases.
compound	assay_value
COC(=O)C(C#N)=C1c2ccccc2Oc2ccccc21	98.9 µM (inactive)
CC[C@@]1(O)C(=O)OCc2c1cc1n(c2=O)Cc2c-1nc1ccccc1c2/C=N\NC(=O)C(N)CO (stereo not given in full)	12.1 µM (inactive)
CCC(=O)NC(Nc1ccccc1F)(C(F)(F)F)C(F)(F)F	> 100 µM (inactive)
Cc1ccc([N+](=O)[O-])cc1NC(=O)C(=O)Cc1occc(=O)c1O	> 100 µM (inactive)
CCOP(=O)(OCC)C(Nc1ccc(Br)cc1)c1cccc([N+](=O)[O-])c1 (stereo not given)	17.5 µM (inactive)
CCOC(=O)/C(=C\NC[C@@H](C)O)c1nc2ccccc2[nH]1	37.4 µM (inactive)
C=C1C(=O)O[C@@H]2CC(CO)=C([C@@H](C)CCCO)[C@@H](OC(=O)/C(C)=C\C)[C@H]12	15.3 µM (inactive)
COc1ccc2c(c1)OCc1c-2oc2ccccc2c1=O	> 100 µM (inactive)

-- ask Which GI50 value is on record for CCOP(=O)(OCC)C(NC(=O)OCC(Cl)(Cl)Cl)n1nnc(C(=O)OC)c1C(=O)OC (stereo not given) ?
-- reply > 100 µM (inactive)

-- ask Ok, now CCCCCCCCCC[C@@H](O)[C@H]1CC[C@H]([C@H]2CC[C@H]([C@H](O)CCCCCCCCCC[C@@H]3CC(CC(C)=O)C(=O)O3)O2)O1 (stereo not given in full)
-- reply 41.3 µM (inactive)

====

Measured GI50, listed per entry for reference.
System: HL-60
test_name: NCI tumour cell line growth inhibition, 48 h
Active and inactive are the calls of the source. Cut-off read from the data, not from the text of the source: active = GI50 up to about 1.1 µM and inactive = higher.

compound	assay_value
CCN(CC)CCCNC(=O)Cc1ccccc1Nc1c(Cl)cccc1Cl	11.8 µM (inactive)
O=C1Cc2c([nH]c3c(Cl)cccc23)-c2ccccc2N1	> 100 µM (inactive)
CO/N=C\c1cc(O)c(O)c(/C=N/OC)c1	3.48 µM (inactive)
COc1ccc(/C=C/C=C2C(=O)NC(=S)NC2=O)cc1	0.805 µM (active)
CC1=NN(C(=O)CC(=O)Nc2cccc(C)c2)C(=O)C1/N=N/c1ccc(C(=O)O)cc1 (configuration not stated)	> 100 µM (inactive)

-- ask Quick one: GI50 of COc1cc(OC)c(C/C=C/c2ccccc2)cc1O ?
-- reply 19.3 µM (inactive)

-- ask Same read-out for CC(Oc1ccc(OCC2CCCCC2)cc1)C(=O)N(CCO)CCO (configuration not stated) ?
-- reply > 100 µM (inactive)

-- ask Cool, now CC1=NN(c2ccccc2)C(=O)C1/N=N/c1ccc(Br)c(C)c1 (configuration not stated)
-- reply > 100 µM (inactive)

-- ask # repeat for CCCCCC/C=C\CCCCCCCCCc1c(O)c(OC)cc(O)c1CN(C)C
-- reply 1.6 µM (inactive)

-- ask Thanks! And COc1cc(OC)c(NC2=NCCO2)cc1Cl ?
-- reply 43.3 µM (inactive)

====

System: SNB-75
test_name: NCI tumour cell line growth inhibition, 48 h
Activity calls are given as the source filed them. No stated cut-off is given here; in the data, active = GI50 up to about 1.1 µM and inactive = higher.
quantity_measured: GI50

Recorded results for 2 compounds are shown here.
compound	experimental_target	GI50
Oc1cc(-c2cccc(OC(F)(F)F)c2)nc2cc3c(cc12)OCO3	SNB-75	0.568 µM (active)
Nc1nc(Cl)c(/C=N\O)c(NCC2(CO)CCC2)n1	SNB-75	59.3 µM (inactive)

-- ask Record request: GI50 value, item N#Cc1c(Cl)nc2ccccc2c1N=[N+]=[N-]
-- reply 8.67 µM (inactive)

-- ask Cool, now CCCCCCCCCCCCCCCCNc1ccn(C2CC(OP(=O)(O)OCC3OC(n4cc(CC)c(=O)[nH]c4=O)CC3O)C(CO)O2)c(=O)n1 (centres undefined)
-- reply 23.3 µM (inactive)

-- ask Cool, now CC1(C)C(O)c2ccccc2OC1N1CCN(C2Oc3ccccc3C(O)C2(C)C)CC1 (centres undefined)
-- reply > 100 µM (inactive)

-- ask Next compound up: CSc1ccc(/C=C2\N=C(c3ccccc3)N(/N=C3\C(=O)Nc4ccccc43)C2=O)cc1
-- reply > 100 µM (inactive)

-- ask Please do the same for COC(=O)c1cc(-c2ccc(OC)c(OC)c2)oc1-c1ccc(OC)c(OC)c1 as well.
-- reply 33.5 µM (inactive)

-- ask Lookup Cc1nnc2c3c(-c4ccccc4)c(-c4ccccc4)oc3nc(N(C)C)n12
-- reply 15.5 µM (inactive)

-- ask Same read-out for O=C1C(Cl)=C(N[C@@H](Cc2ccccc2)C(=O)OCc2ccccc2)C(=O)c2c(O)ccc(O)c21 ?
-- reply 4.73 µM (inactive)

====

Tested on: SNB-19
test_name: NCI tumour cell line growth inhibition, 48 h
The source made the active and inactive calls. No stated cut-off is given here; in the data, active = GI50 up to about 1.1 µM and inactive = higher.
Output constraint: value belongs to active, inactive

Record excerpt, results attached:
compound	group_label
CC1(C)O[C@@H]2[C@@H](COC(C)(C)O[C@H]2C2SCCCS2)O1	inactive
O=c1[nH]c(-c2ccccc2)nc2c1sc1nc3ccccc3n12	inactive
CCOP(=O)(OCC)C(Nc1ccc(Br)cc1)c1cccc([N+](=O)[O-])c1 (stereo unspecified)	inactive
CN1N=C2NCCNC3=NN(C)/C(=N/CC/N=C/1S2)S3	inactive
COc1ccc(/C=C/C=C2C(=O)NC(=S)NC2=O)cc1	inactive
O=C(Cn1ccnc1[N+](=O)[O-])NCCO [ETANIDAZOLE]	inactive
CCOC(=O)Oc1c(OC)cc(C(=O)NC2CCc3cc(OC)c(OC)c(OC)c3-c3ccc(SC)c(=O)cc32)cc1OC (stereo unspecified)	active
CC(N)C(C)c1ccccc1 (stereo unspecified)	inactive

# next compound below
-- ask Record request — test call for COc1ccc(-n2nnc3c(C#N)c(C)c(-c4ccccc4)n3c2=O)cc1
-- reply inactive

====

Tested on: MDA-MB-231
test_name: NCI tumour cell line growth inhibition, 48 h
Calls of active or inactive are those of the source. No stated cut-off is given here; in the data, active = GI50 up to about 1.1 µM and inactive = higher.
As shown below, each of these molecules has a reported GI50 value.

Illustrative cases are given below, each with its answer.
molecule	experimental_target	assay_value
Nc1ncnc2c1ncn2C1OC(CO)C(O)C1N (stereo not drawn)	MDA-MB-231	> 100 µM (inactive)
Cc1cn([C@H]2C[C@](C)(CO)N(C)O2)c(=O)[nH]c1=O	MDA-MB-231	> 100 µM (inactive)
O=C1C=C(C2=CC(=O)C(=O)c3ccccc32)c2ccccc2C1=O	MDA-MB-231	15.6 µM (inactive)

-- ask Lab note: need GI50 with MDA-MB-231 for entry Cc1ccc2c(ccc3[nH]cc(CNc4ccc(NS(C)(=O)=O)cc4)c32)n1 , please look it up.
-- reply 25.3 µM (inactive)

-- ask Try the molecule O=C(/C=C/c1cccc(Oc2ccccc2)c1)NCc1ccc(C(=O)NCCc2ccccc2)cc1
-- reply 82.4 µM (inactive)

-- ask Try this molecule next: N#C[BH2-][n+]1ccc(C(=O)NNCc2cccc(C(F)(F)F)c2)cc1
-- reply 10.4 µM (inactive)

-- ask Now consider Nc1nnc2n1C(=O)C(C1(C3=Nc4nnc(N)n4C3=O)Cc3ccccc3C1=O)=N2 .
-- reply 31.8 µM (inactive)

These measurements were taken from ChEMBL document CHEMBL1201862.
